These measurements were taken from ChEMBL document CHEMBL1641390.

Listed next: entries and their corresponding IC50.
# Tested on: Bel-7402
# assay-protocol: Cytotoxicity against human Bel7402 cells after 72 hrs by sulforhodamine B assay
# Type: functional, cell-based
# recorded-conditions: Bel-7402, 72 h

Below, 3 compounds whose answers are already recorded.
# compound, target, IC50
rows = [
    ("C=C(C=O)[C@@H]1CC[C@@H]2[C@@H](C1)C(=O)[C@@H](O)[C@@H]1[C@](C)(COC(C)=O)CC[C@H](O)[C@@]21C [ERIOCASIN D]", "Bel-7402", "> 10 µM"),
    ("C=C(C=O)[C@@H]1CC[C@@H]2[C@@H](C1)C(=O)[C@@H](O)[C@@H]1[C@](C)(COC(C)=O)[C@@H](OC(C)=O)CC[C@]12C", "Bel-7402", "> 10 µM"),
    ("C=C1C(=O)[C@]23C[C@H]1CC[C@H]2[C@@]12CO[C@@]3(O)[C@@H](OC(C)=O)[C@@H]1[C@@](C)(COC(C)=O)CC[C@H]2OC(C)=O [MAOECRYSTAL R]", "Bel-7402", "4 µM"),
]

Request: IC50 for C=C1C(=O)[C@@]23C[C@H]1C[C@H]1O[C@H](O)[C@@H]4[C@](C)(COC(C)=O)CC[C@@H](OC2=O)[C@@]4(CO)[C@H]13 [MAOESIN A] ?
Result: > 10 µM

Request: IC50 for C=C1C(=O)[C@]23C[C@H]1C[C@@H](O)[C@H]2[C@]12CC[C@H](OC(C)=O)[C@@](C)(COC(C)=O)[C@H]1[C@H](O)[C@]3(O)OC2 [MAOESIN C] ?
Result: > 10 µM
